Listing of recorded EMax, OVCAR 5 cells (cAMP) by entry.
# testedOn: T1, RXFP1 receptor (UniProt Q9HBX9 1-757, limits assumed)
# T1 sequence (looked up): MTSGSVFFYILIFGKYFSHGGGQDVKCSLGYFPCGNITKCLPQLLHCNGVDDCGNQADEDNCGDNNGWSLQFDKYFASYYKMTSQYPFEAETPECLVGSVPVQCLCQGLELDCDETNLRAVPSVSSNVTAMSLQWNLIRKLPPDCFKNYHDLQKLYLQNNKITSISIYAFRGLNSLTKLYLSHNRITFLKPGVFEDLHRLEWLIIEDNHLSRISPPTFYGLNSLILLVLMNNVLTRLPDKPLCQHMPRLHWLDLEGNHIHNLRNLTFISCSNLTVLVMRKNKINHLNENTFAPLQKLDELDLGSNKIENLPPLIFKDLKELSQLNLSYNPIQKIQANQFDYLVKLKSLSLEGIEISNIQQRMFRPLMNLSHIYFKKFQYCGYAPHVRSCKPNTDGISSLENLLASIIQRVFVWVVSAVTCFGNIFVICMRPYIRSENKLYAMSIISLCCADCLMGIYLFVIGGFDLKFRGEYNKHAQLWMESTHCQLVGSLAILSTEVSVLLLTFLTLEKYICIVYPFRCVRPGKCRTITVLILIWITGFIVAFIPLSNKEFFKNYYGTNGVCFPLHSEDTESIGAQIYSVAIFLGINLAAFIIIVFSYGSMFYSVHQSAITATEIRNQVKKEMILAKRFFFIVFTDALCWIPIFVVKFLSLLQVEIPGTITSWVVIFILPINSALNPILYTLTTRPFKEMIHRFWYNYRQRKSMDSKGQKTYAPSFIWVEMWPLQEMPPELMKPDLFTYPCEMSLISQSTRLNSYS
# protocolSummary: cell-based or functional assay
*1 amine or outer side, *2 acyl side, *3 side chain or, on linkers, in order; H or OH if unused. Primed or numbered codes have the meaning given here. Side-chain parts run from the residue outwards. [ ]: non-standard residue; d: D form. The star is where a group is joined. PEG12 = NCCOCCOCCOCCOCCOCCOCCOCCOCCOCCOCCOCCOCCC(=O)O; γGlu = O=C(O)[C@H](CCC(=O)[*:2])N[*:1]; 1Nal = N[C@@H](Cc1cccc2ccccc12)C(=O)O; Arg(Me) = CNC(=N)NCCC[C@H](N)C(=O)O; Stearoyl = CCCCCCCCCCCCCCCCCC(=O)*; Palmitoyl = CCCCCCCCCCCCCCCC(=O)*; αMeK = C[C@](N)(CCCCN)C(=O)O; Nle = CCCC[C@H](N)C(=O)O; PEG2′ = PEG2 spacer unit; PEG2″ = not defined here; Aib = CC(C)(N)C(=O)O
readout: EMax, OVCAR 5 cells (cAMP) (%)

1) Ac-LEGREKVRAK(Ac)I[Aib][Aib]EG[Nle]STFS[αMeK][Arg(Me)]AK(Ac)[PEG2″][PEG2″][PEG2″][PEG2″][γGlu][γGlu][γGlu]K([γGlu-Palmitoyl])-NH2 [peptide of SEQ ID NO: 151]    90
2) Ac-LEGREKVRAK(Ac)I[Aib][Aib]EG[Nle]STWS[Aib]RKK(Ac)K([PEG2′-PEG2′-PEG2′-PEG2′-γGlu-γGlu-γGlu-Stearoyl])-NH2 [peptide of SEQ ID NO: 90]    89
3) Ac-LEGREKVRAK(Ac)I[Aib][Aib]EG[Nle]STWS[αMeK]RKK(Ac)[PEG12]K([γGlu-γGlu-γGlu-γGlu-Palmitoyl])-NH2 [peptide of SEQ ID NO: 43]    106
4) Ac-LEGREKVR[Aib]K(Ac)I[Aib][Aib]EG[Nle]ST[1Nal]S[Aib]RKK(Ac)K([PEG2′-PEG2′-PEG2′-γGlu-γGlu-γGlu-Stearoyl])-NH2 [peptide of SEQ ID NO: 85]    75
